experiment: Selectivity index, ratio of CC50 for African green monkey Vero cells to EC50 for chloroquine-sensitive Plasmodium falciparum 3D7; type: toxicity; conditions: read-out: Ratio CC50/EC50
readoutType: selectivity ratio

| compound | result |
| --- | --- |
| NS(=O)(=O)c1ccc(N2N=C(c3ccc(Cl)cc3Cl)CC2c2cn(-c3ccccc3)nc2-c2ccccc2)cc1 (centres undefined) | > 162 |
| COc1cccc(C2=NN(c3ccc(S(N)(=O)=O)cc3)C(c3cn(-c4ccccc4)nc3-c3ccc(C)cc3)C2)c1OC (centres undefined) | > 60 |
| COc1ccc(C2=NN(c3ccc(S(N)(=O)=O)cc3)C(c3cn(-c4ccccc4)nc3-c3ccc(C)cc3)C2)cc1 (centres undefined) | > 46.8 |
| COc1ccc(C2=NN(c3ccc(S(N)(=O)=O)cc3)C(c3cn(-c4ccccc4)nc3-c3ccc(Cl)cc3)C2)cc1 (centres undefined) | 33.2 |

====

assay: Cytotoxicity against African green monkey Vero cells assessed as reduction in cell viability after 72 hrs by MTT assay; type: cell-based; conditions: chlorocebus sabaeus

| compound | CC50 at 72 h |
| --- | --- |
| NS(=O)(=O)c1ccc(N2N=C(c3ccc(Cl)cc3)CC2c2cn(-c3ccccc3)nc2-c2ccc(Cl)cc2)cc1 (centres undefined) | > 164 µM |
| Cc1ccc(C2=NN(c3ccc(S(N)(=O)=O)cc3)C(c3cn(-c4ccccc4)nc3-c3ccc(C)cc3)C2)cc1 (centres undefined) | > 41.5 µM |
| Cc1ccc(-c2nn(-c3ccccc3)cc2C2CC(c3ccccc3)=NN2c2ccc(S(N)(=O)=O)cc2)cc1 (centres undefined) | > 162 µM |
| NS(=O)(=O)c1ccc(N2N=C(c3ccc(Cl)cc3Cl)CC2c2cn(-c3ccccc3)nc2-c2ccccc2)cc1 (centres undefined) | > 438 µM |

====

system: Plasmodium falciparum; assay: Antimalarial activity against chloroquine-sensitive Plasmodium falciparum 3D7 infected in red blood cells assessed as reduction in mature schizonts formation after 24 hrs by Giemsa-staining based assay; assay type: functional, organism-based; conditions: 3D7, 24 h
pEC50: −log10 of the molar value.

| compound | target | pEC50 |
| --- | --- | --- |
| NS(=O)(=O)c1ccc(N2N=C(c3ccc(Br)cc3)CC2c2cn(-c3ccccc3)nc2-c2ccc(F)cc2)cc1 (centres undefined) | Plasmodium falciparum | 5.51 |
| Cc1ccc(-c2nn(-c3ccccc3)cc2C2CC(c3ccccc3)=NN2c2ccc(S(N)(=O)=O)cc2)cc1 (centres undefined) | Plasmodium falciparum | 5.53 |
| CCN(CC)CCCC(C)Nc1ccnc2cc(Cl)ccc12 (centres undefined) [CHLOROQUINE] | Plasmodium falciparum | 5.53 |
| NS(=O)(=O)c1ccc(N2N=C(c3ccc(O)cc3)CC2c2cn(-c3ccccc3)nc2-c2ccccc2)cc1 (centres undefined) | Plasmodium falciparum | 5.52 |
